Test system: Saccharomyces cerevisiae BY4741 SeMeCo community
protocol_description: z-score of subpopulation abundance vs DMSO median, subpopulation auxotrophic for HLU; higher = larger share of this subpopulation than in DMSO controls
condition_label: 10 µM; 24 h; SM minimal medium; subpopulation (auxotrophy): HLU
Where a name gives a salt, the structure may show the parent alone.
Tag: 1 (yes) if measured z-score of subpopulation abundance is not below -0.2, 0 (no) if it is.

{"columns": ["compound", "group"],
 "data": [
  ["COc1ccc(C=O)cc1", "0 (no)"],
  ["CC1(C)SC2C(N)C(=O)N2C1C(=O)O (stereo not given)", "1 (yes)"],
  ["CC[N+](C)(CC)CCOC(=O)C(O)(c1ccccc1)c1ccccc1 [Methylbenactyzine Bromide]", "0 (no)"],
  ["COc1ccc2c(c1)[C@]13CCCC[C@@H]1[C@H](C2)N(C)CC3 [Dextromethorphan hydrobromide hydrate]", "1 (yes)"],
  ["C=CC[C@]1(O)CC[C@H]2[C@@H]3CCC4=CC(=O)CCC4=C3C=C[C@@]21C", "1 (yes)"],
  ["Cn1cc(C2=C(c3cn(C4CCN(Cc5ccccn5)CC4)c4ccccc34)C(=O)NC2=O)c2ccccc21", "1 (yes)"],
  ["CC(C)(O)C(Cl)(Cl)Cl", "1 (yes)"],
  ["CCN(C)C(=O)Oc1cccc([C@H](C)N(C)C)c1", "0 (no)"],
  ["CN1[C@@H]2CC[C@H]1C[C@@H](OC(=O)C(CO)c1ccccc1)C2 (stereo not given in full) [Atropine sulfate monohydrate]", "0 (no)"],
  ["C[CH2][Hg][S]c1ccccc1C(=O)[O-].[Na+]", "1 (yes)"]
]}
